Duration of Effect overview
test system: 6-hydroxydopamine-lesioned rats; assay: Turning behavior in 6-hydroxydopamine-lesioned (nigro-neostriatal-lesioned) rats; type: in vivo, rat; conditions: IP, 1 mg./kg.
Could you give me the number in h? Just the number is fine.

Worked examples, 2 compounds total:
| compound | assayedTarget | valueReported |
| --- | --- | --- |
| CCCN1CC(CSC)=C[C@@H]2c3cccc4[nH]cc(c34)C[C@H]21 | 6-hydroxydopamine-lesioned rats | 1 |
| CCCN1C[C@H](C[S+](C)[O-])C[C@@H]2c3cccc4[nH]cc(c34)C[C@H]21 (stereo partly shown) | 6-hydroxydopamine-lesioned rats | 1 |

Now consider the entry below.
Value of Duration of Effect reported for the compound CCCN1C[C@H](CSC)C[C@@H]2c3cccc4[nH]c(Br)c(c34)C[C@H]21 is 1
